Target Under Test: FAAH (Homo sapiens, UniProt O00519)
Sequence (O00519 whole entry): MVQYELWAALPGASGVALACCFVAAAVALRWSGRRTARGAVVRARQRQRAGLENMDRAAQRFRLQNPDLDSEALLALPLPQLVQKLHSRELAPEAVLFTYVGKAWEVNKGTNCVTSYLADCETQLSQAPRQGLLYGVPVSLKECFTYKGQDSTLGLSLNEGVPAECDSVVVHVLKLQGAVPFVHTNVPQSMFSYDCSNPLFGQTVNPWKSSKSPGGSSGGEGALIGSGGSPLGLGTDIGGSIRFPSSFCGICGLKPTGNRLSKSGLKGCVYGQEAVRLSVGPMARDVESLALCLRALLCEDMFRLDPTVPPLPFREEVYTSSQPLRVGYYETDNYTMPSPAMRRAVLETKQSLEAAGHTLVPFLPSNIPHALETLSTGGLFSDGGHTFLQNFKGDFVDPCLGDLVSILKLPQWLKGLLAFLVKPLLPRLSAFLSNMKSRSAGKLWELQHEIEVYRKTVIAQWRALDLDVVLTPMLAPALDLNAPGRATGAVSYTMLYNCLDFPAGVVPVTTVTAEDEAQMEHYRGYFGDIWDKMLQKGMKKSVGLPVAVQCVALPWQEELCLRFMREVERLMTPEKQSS
Procedure Summary: In vitro competitive activity-based protein profiling, FAAH, human
Condition Set: read-out: FAAH % inh. 1 μM (human)
Measured inhibition at 1 µM of individual entries

Req: Quick one: inhibition at 1 µM for `O=C(O)c1ccn(C(=O)N2CCN(Cc3ccc(N4CCCC4)cc3C(F)(F)F)CC2)n1` ?
Resp: 25 to 50%

Req: Quick one: inhibition at 1 µM for O=C(O)c1ccn(C(=O)N2CC3CN(Cc4cc(F)cc(Cl)c4)CC3C2)n1 (centres unmarked) ?
Resp: 50 to 75%

Req: Quick one: inhibition at 1 µM for `O=C(O)c1ccn(C(=O)N2CCN(Cc3ccc(OC(F)(F)F)cc3-c3nnco3)CC2)n1` ?
Resp: 0 to 25%

Req: Quick one: inhibition at 1 µM for `O=C(O)c1ccn(C(=O)N2CCC3(CCN(Cc4ccc(N5CCOCC5)cc4Cl)C3)CC2)n1` ?
Resp: 0 to 25%

Req: Quick one: inhibition at 1 µM for `C#Cc1ccc(CN2CCN(C(=O)n3ccc(C(N)=O)n3)CC2)cc1` ?
Resp: > 75%

Req: Quick one: inhibition at 1 µM for `Cc1c(CO[C@H]2C[C@@H]3CN(C(=O)n4ccc(C(=O)O)n4)C[C@@H]3C2)cccc1C(F)(F)F` ?
Resp: > 75%

Req: Quick one: inhibition at 1 µM for O=C(O)c1nn(C(=O)N2CC3CN(Cc4cccc(Oc5ccc(Cl)cc5)c4)CC3C2)cc1C(F)(F)F (centres unmarked) ?
Resp: > 75%

Req: Quick one: inhibition at 1 µM for `O=C(O)c1ccn(C(=O)N2CCN(Cc3ccc(C(F)(F)F)cc3-c3nnn[nH]3)CC2)n1` ?
Resp: 0 to 25%

---

Target Under Test: FAAH (Mus musculus)
Sequence (O08914 whole entry): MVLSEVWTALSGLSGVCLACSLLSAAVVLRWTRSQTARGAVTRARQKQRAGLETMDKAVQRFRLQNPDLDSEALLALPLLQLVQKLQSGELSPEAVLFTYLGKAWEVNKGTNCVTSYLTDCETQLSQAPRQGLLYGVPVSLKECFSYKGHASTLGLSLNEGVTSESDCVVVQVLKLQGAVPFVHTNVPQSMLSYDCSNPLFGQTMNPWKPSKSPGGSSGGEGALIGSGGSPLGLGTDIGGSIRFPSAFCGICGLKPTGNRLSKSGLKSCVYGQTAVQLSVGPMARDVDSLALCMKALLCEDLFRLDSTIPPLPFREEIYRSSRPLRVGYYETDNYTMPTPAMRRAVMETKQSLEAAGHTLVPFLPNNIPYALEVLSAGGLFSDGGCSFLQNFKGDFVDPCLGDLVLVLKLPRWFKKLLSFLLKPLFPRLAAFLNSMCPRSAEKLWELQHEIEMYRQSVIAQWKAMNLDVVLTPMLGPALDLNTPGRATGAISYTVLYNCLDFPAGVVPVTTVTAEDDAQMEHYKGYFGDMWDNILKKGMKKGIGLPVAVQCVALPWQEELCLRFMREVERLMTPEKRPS
Procedure Summary: In vitro competitive activity-based protein profiling, FAAH, mouse
Condition Set: read-out: FAAH % inh. 1 μM (mouse)
Measured inhibition at 1 µM of individual entries

Compound	Result Value
Cc1cn(C(=O)N2CCN(Cc3cccc(Oc4ccc(Cl)cc4)c3)CC2)nc1C(=O)O	> 75%
O=C(O)c1ccn(C(=O)N2CCN(Cc3ccc(C(F)(F)F)cc3N3CCN(C4CC4)CC3)CC2)n1	0 to 25%
O=C(O)c1ccn(C(=O)N2CCN(Cc3ccc(Cl)cc3N3CC4COCC4C3)CC2)n1 (centres unmarked)	0 to 25%
O=C(O)c1ccn(C(=O)N2CCC3(CCN(Cc4cc(Cl)cc(C(F)(F)F)c4)C3)CC2)n1	0 to 25%

Req: Request - read-out inhibition at 1 µM | tested on FAAH (Mus musculus) | compound `NC(=O)c1ccn(C(=O)N2CCN(Cc3cnccc3C(F)(F)F)CC2)n1`
Resp: > 75%

Req: Request - read-out inhibition at 1 µM | tested on FAAH (Mus musculus) | compound `O=C(O)c1ccn(C(=O)N2CCC3(CCN(Cc4ccc(Cl)cc4N4CCCC4)C3)CC2)n1`
Resp: 0 to 25%

---

Target Under Test: FAAH (Homo sapiens, UniProt O00519)
Procedure Summary: In vitro competitive activity-based protein profiling, FAAH, human
Parameter: IC50

Please review the following examples before continuing.
Compound	Parameter	Result Value
O=C(O)c1ccn(C(=O)N2CCN(Cc3cccc(Oc4cccc(Cl)c4)c3)CC2)n1	IC50	0.1 to 1 µM
CN(Cc1cc(Cl)ccc1C(F)(F)F)C1CCN(C(=O)n2ccc(C(=O)O)n2)CC1	IC50	0.1 to 1 µM
O=C(O)c1ccn(C(=O)N2CCN(Cc3ccc(Oc4ccc(Cl)cc4)cc3)CC2)n1	IC50	0.1 to 1 µM
O=C(O)c1nn(C(=O)N2CC3CN(Cc4cc(Cl)ccc4Cl)CC3C2)cc1Cl (stereo not shown)	IC50	0.1 to 1 µM
O=C(O)c1ccn(C(=O)N2CCN(Cc3cccc(C(F)(F)F)c3N3CCOCC3)CC2)n1	IC50	1 to 10 µM

Pending compound:
Req: Quick one: IC50 for `O=C(O)c1ccn(C(=O)N2CCC3(CCN(Cc4ccc(-c5ccccc5)cc4C(F)(F)F)C3)CC2)n1` ?
Resp: 0.1 to 1 µM

---

Target Under Test: MAGL (Mus musculus, UniProt O35678)
Sequence (O35678 whole entry): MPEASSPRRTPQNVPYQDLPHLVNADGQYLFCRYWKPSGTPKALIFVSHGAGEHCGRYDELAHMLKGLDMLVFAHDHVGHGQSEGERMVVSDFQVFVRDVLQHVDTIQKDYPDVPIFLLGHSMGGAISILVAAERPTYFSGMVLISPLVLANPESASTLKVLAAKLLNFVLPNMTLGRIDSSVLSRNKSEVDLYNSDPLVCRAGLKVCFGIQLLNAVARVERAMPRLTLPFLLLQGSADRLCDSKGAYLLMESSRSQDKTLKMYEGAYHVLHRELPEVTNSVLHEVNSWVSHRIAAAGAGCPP
Procedure Summary: In vitro competitive activity-based protein profiling, MAGL, mouse
Condition Set: read-out: MAGL % inh. 1 μM (mouse)
Measured inhibition at 1 µM of individual entries

Please review the following examples before continuing.
Molecule	Result Value
C[C@@H]1CCCN1c1cc(C(F)(F)F)ccc1CN1CCN(C(=O)n2ccc(C(=O)O)n2)CC1 [Example 95]	> 75%
CNC(=O)c1ccn(C(=O)N2CC3CN(Cc4ccc(Cl)cc4)CC3C2)n1 (stereo not shown) [Example 424]	> 75%
O=C(O)c1ccn(C(=O)N2CCN(Cc3ccc(C(F)(F)F)cc3N3CCC(O)CC3)CC2)n1 [Example 120]	> 75%

Pending molecule:
Req: Quick one: inhibition at 1 µM for COc1ccc(Cl)cc1CN1CCC2(CCN(C(=O)n3ccc(C(=O)O)n3)CC2)C1 [Example 282] ?
Resp: 0 to 25%

---

Target Under Test: MAGL (Homo sapiens, UniProt Q99685)
Sequence (Q99685 1-303): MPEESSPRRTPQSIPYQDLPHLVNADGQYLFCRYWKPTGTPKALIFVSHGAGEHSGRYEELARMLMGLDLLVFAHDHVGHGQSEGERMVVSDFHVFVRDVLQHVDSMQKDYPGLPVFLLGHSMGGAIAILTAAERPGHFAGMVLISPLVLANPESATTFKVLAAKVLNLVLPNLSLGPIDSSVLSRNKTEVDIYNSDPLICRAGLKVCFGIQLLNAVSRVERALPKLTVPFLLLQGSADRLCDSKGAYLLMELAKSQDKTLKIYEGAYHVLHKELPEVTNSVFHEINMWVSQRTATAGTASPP
Procedure Summary: In vitro competitive activity-based protein profiling, MAGL, human
Condition Set: read-out: MAGL % inh. 1 μM (human)
Measured inhibition at 1 µM of individual entries

Please review the following examples before continuing.
Compound	Result Value
O=C(O)c1ccn(C(=O)N2CCC3(CCN(Cc4cccc(C(F)(F)F)c4)CC3)C2)n1	25 to 50%
O=C(O)c1ccn(C(=O)N2CCC3(CCN(Cc4ccc(N5CCOCC5)cc4Cl)C3)CC2)n1	25 to 50%

Req: Quick one: inhibition at 1 µM for `NC(=O)c1ccn(C(=O)N2CCC3(CCCN3Cc3ccc(C(F)(F)F)cc3N3CCCC3)CC2)n1` ?
Resp: > 75%

Req: Quick one: inhibition at 1 µM for `O=C(O)c1ccn(C(=O)N2C[C@H]3C[C@H](Oc4cccc(-c5ccccn5)c4)C[C@H]3C2)n1` ?
Resp: > 75%

Req: Quick one: inhibition at 1 µM for `CC(=O)NC1CCN(c2cc(C(F)(F)F)ccc2CN2CCN(C(=O)n3ccc(C(=O)O)n3)CC2)CC1` ?
Resp: > 75%

Req: Quick one: inhibition at 1 µM for O=C(O)c1ccn(C(=O)N2CC3CN(Cc4ccc(N5CCCC5)cc4C(F)(F)F)CC3C2)n1 (stereo not shown) ?
Resp: > 75%

Req: Quick one: inhibition at 1 µM for O=C(O)c1ccn(C(=O)N2CC3CN(Cc4cc(F)cc(Cl)c4)CC3C2)n1 (stereo not shown) ?
Resp: 25 to 50%

Req: Quick one: inhibition at 1 µM for `O=C(O)c1ccn(C(=O)N2C[C@H]3C[C@H](Oc4cccc(C5CC5)c4)C[C@H]3C2)n1` ?
Resp: > 75%

Req: Quick one: inhibition at 1 µM for `O=C(O)c1ccn(C(=O)N2CCC3(CCN(Cc4cccc(C(F)(F)F)c4)C3)CC2)n1` ?
Resp: > 75%

Req: Quick one: inhibition at 1 µM for `O=C(O)c1ccn(C(=O)N2CCC(OCc3cc(F)cc(Cl)c3)CC2)n1` ?
Resp: > 75%

Req: Quick one: inhibition at 1 µM for `O=C(O)c1ccn(C(=O)N2CCN(Cc3cccc(Oc4cncnc4)c3)CC2)n1` ?
Resp: 50 to 75%

Req: Quick one: inhibition at 1 µM for `O=C(O)c1nn(C(=O)N2CCN(Cc3cc(Cl)cc(-c4cncnc4)c3)CC2)cc1Cl` ?
Resp: > 75%

---

Target Under Test: MAGL (Mus musculus, UniProt O35678)
Procedure Summary: In vitro competitive activity-based protein profiling, MAGL, mouse
Condition Set: read-out: MAGL % inh. 1 μM (mouse)
Measured inhibition at 1 µM of individual entries

Req: Quick one: inhibition at 1 µM for `Cc1cn(C(=O)N2C[C@H]3C[C@H](Oc4ccccc4-c4ccccc4)C[C@H]3C2)nc1C(=O)O` ?
Resp: > 75%

Req: Quick one: inhibition at 1 µM for `C[C@@H]1CN(Cc2ccc(C(F)(F)F)cc2N2C3CCC2COC3)CCN1C(=O)n1ccc(C(=O)O)n1` ?
Resp: > 75%

Req: Quick one: inhibition at 1 µM for `O=C(O)c1ccn(C(=O)N2CCN(Cc3ccc(C(F)(F)F)cc3N3CC[C@@H](O)C3)CC2)n1` ?
Resp: > 75%

Req: Quick one: inhibition at 1 µM for `O=C(O)c1nn(C(=O)N2CCN(Cc3ccc(N4CCCC4)cc3C(F)(F)F)CC2)cc1Cl` ?
Resp: > 75%

Req: Quick one: inhibition at 1 µM for `CC(C)(O)COc1cccc(CN2CCN(C(=O)n3ccc(C(=O)O)n3)CC2)c1Cl` ?
Resp: > 75%

Req: Quick one: inhibition at 1 µM for `CN(Cc1ccc(C(F)(F)F)cc1N1CCCCC1)C1(C)CCN(C(=O)n2ccc(C(=O)O)n2)CC1` ?
Resp: > 75%

Req: Quick one: inhibition at 1 µM for `O=C(O)c1ccn(C(=O)N2CCN(Cc3cccc(Oc4cccnc4)c3)CC2)n1` ?
Resp: 25 to 50%

Req: Quick one: inhibition at 1 µM for `NC(=O)c1ccn(C(=O)N2CCC3(CCCN3Cc3ccc(C(F)(F)F)cc3N3CCCC3)CC2)n1` ?
Resp: > 75%

Req: Quick one: inhibition at 1 µM for `CC(C)COc1cccc(O[C@H]2C[C@@H]3CN(C(=O)n4ccc(C(=O)O)n4)C[C@@H]3C2)c1Cl` ?
Resp: > 75%
